experiment.description: gradient 5% acetonitrile 3 min, to 50% in 2 min, to 85% in 15 min, held 3 min, 100 µL/min
settings: column: Zorbax Extend-C18 2.1 x 50 mm; eluents: water / acetonitrile, 0.1% formic acid
measured.attribute: RP-LC retention time (s)

# molecule, display.unit, RP-LC retention time
rows = [
    ("CCN1c2ccccc2C(=O)NC12CCN(C(=O)c1ccc(C)cc1)CC2", "s", 804),
    ("O=C(NCC1CCCO1)c1c[nH]c2ncccc12 (stereo unspecified)", "s", 589),
    ("Cc1ccc2nc(Nc3nc(C)cc(C(F)(F)F)n3)nc(C)c2c1", "s", 713),
    ("CCCNC(=O)c1cc(-c2ccncc2)cn1Cc1ccc(C)cc1", "s", 696),
    ("COc1ccc(C2CN(S(=O)(=O)c3ccccc3F)CCN2C)cc1 (stereo unspecified)", "s", 670),
]

A = CCn1c(=O)c2ccn(CC(=O)NCc3cc(OC)ccc3OC)c2n(CC)c1=O
B = O=C(c1ccco1)N1CCCN(C2CCN(Cc3ccc(F)cc3)C2=O)CC1 (stereo unspecified)
I'm curious, which of these has a smaller RP-LC retention time number: A or B ? Response format: the label of the selected entry. B

====

experiment.description: gradient 5% acetonitrile 3 min, to 50% in 2 min, to 85% in 15 min, held 3 min, 100 µL/min
settings: column: Zorbax Extend-C18 2.1 x 50 mm; eluents: water / acetonitrile, 0.1% formic acid
measured.attribute: RP-LC retention time (s)

1 = CCN(CC)S(=O)(=O)c1ccc2c(c1)CC(C(=O)NCc1ccc(N(C)C)cc1)N2C(C)=O (stereo not given)
2 = Cc1nc(C)c(C(=O)Nc2nc(-c3ccc(C)c(C)c3)cs2)s1
Which has the higher RP-LC retention time, 1 or 2 ? Could you answer with the label of the item you picked? 2

I = CC(C)Cc1nnc(C(=O)Nc2cccc(C(=O)NCCc3c[nH]c4ccccc34)c2)s1
II = CCCN(CC1CCOC1)C(=O)Nc1ccc(Cl)cc1C (stereo not given)
// compare: I vs II , metric RP-LC retention time, want the smaller Write down the label attached to your selection. II

====

experiment.description: gradient 5% acetonitrile 3 min, to 50% in 2 min, to 85% in 15 min, held 3 min, 100 µL/min
settings: column: Zorbax Extend-C18 2.1 x 50 mm; eluents: water / acetonitrile, 0.1% formic acid
measured.attribute: RP-LC retention time (s)

Examples with their reported RP-LC retention time follow.
# compound, endpoint.value
data = [
    ("Cc1ccc(S(=O)(=O)c2cnc3cc4c(cc3c2N2CCOCC2)OCCO4)cc1", 849),
    ("CCOc1ccc(-c2nc(CNC(=O)Nc3ccccc3OCC)c(C)o2)cc1", 1080),
    ("CCC(C)NS(=O)(=O)c1ccc(-c2c(C)noc2C)cc1 (centres undefined)", 936),
    ("COc1ccccc1CNC(=O)CN1CCN(Cc2ccc(F)cc2)C(=O)C1=O", 732),
    ("O=C(NCc1ccncc1)c1ccc(-c2cccs2)nc1", 588),
]

a = CC1(C(=O)NCc2ccc(F)cc2)CCCN(C(=O)NC2COc3ccccc3C2)C1 (centres undefined)
b = CCc1ccccc1NC(=O)Cn1c(N)nc(COC)cc1=O
Kindly identify the item with the lower RP-LC retention time figure among these two: a and b Mark your selection by writing its label. b

a = CCOC(=O)c1c(NCCC(C)C)c2cc(Cl)ccc2[nH]c1=O
b = CCn1cc(CCN2CCC(C(=O)NC3CCCCC3)CC2)c2cccnc21
Lower value of RP-LC retention time belongs to which: a or b ? The response must carry the label of the picked entry. b

P = CC(C)(C)C1=NN=C2c3ccccc3C(=O)C21 (centres undefined)
Q = CCc1cccc(NC(=O)Cn2nc(N3CCC(C)CC3)c3ccccc3c2=O)c1
Hi, I'm comparing two records. Which one has the lower RP-LC retention time, P or Q ? Refer to your chosen item by its label in the answer. P
(P: 852 s, Q: 1220 s)

P = CCCCOc1ccc(C(=O)N2CCNC(=O)C2CC(=O)OC2CCCCC2)cc1 (centres undefined)
Q = Cc1ccc(C)c(S(=O)(=O)Nc2ccc3nc(N4CCN(CCC#N)CC4)cc(C(=O)O)c3c2)c1
Select the item whose RP-LC retention time value is smaller, choosing between P and Q . Answer with the label corresponding to your selection. Q
(Q: 631 s, P: 1000 s)

====

experiment.description: gradient 5% acetonitrile 3 min, to 50% in 2 min, to 85% in 15 min, held 3 min, 100 µL/min
settings: column: Zorbax Extend-C18 2.1 x 50 mm; eluents: water / acetonitrile, 0.1% formic acid
measured.attribute: RP-LC retention time (s)

# compound, measured.attribute, display.unit, endpoint.value
measured = [
    ("Cc1cc(C(=O)NCC(c2cn(C)c3ccccc23)N(C)C)no1 (centres undefined)", "RP-LC retention time", "s", 557),
    ("O=C(c1cnccn1)N1CCC2(CC1)CC(OCC1CC1)CCO2 (centres undefined)", "RP-LC retention time", "s", 694),
    ("Cc1nnc2c(=O)n(CC(=O)NCc3ccc(F)c(Cl)c3)c3cccnc3n12", "RP-LC retention time", "s", 723),
    ("CC(C)N1CCN(S(=O)(=O)c2ccc(-c3nnc(C4CCC4)o3)o2)CC1", "RP-LC retention time", "s", 637),
    ("CCCNC(=O)Cc1c(C)nn(-c2nc(-c3ccc(Cl)cc3)cs2)c1C", "RP-LC retention time", "s", 1110),
    ("COc1ccc(OC)c(NC(=O)NC2CCN(c3nc4ccccc4n(C)c3=O)CC2)c1", "RP-LC retention time", "s", 886),
    ("Cc1ccc(-c2noc(-c3ccc(N4CCN(Cc5ccc6c(c5)OCO6)CC4)nc3)n2)cc1", "RP-LC retention time", "s", 874),
    ("CC(=O)N1c2ccc(S(=O)(=O)N3CCCCCC3)cc2CC1C(=O)NC(C)c1ccccc1 (centres undefined)", "RP-LC retention time", "s", 925),
    ("CC(C)c1noc(-c2ccn3c(CC(=O)NC(C)c4ccc(F)cc4)nnc3c2)n1 (centres undefined)", "RP-LC retention time", "s", 792),
]

====

experiment.description: gradient 5% acetonitrile 3 min, to 50% in 2 min, to 85% in 15 min, held 3 min, 100 µL/min
settings: column: Zorbax Extend-C18 2.1 x 50 mm; eluents: water / acetonitrile, 0.1% formic acid
measured.attribute: RP-LC retention time (s)

# compound, RP-LC retention time (s)
measured = [
    ("Cc1ccc(S(=O)(=O)N2CC(=O)N(C3CCCCC3)C(C)(C(=O)NCc3ccccc3)C2)cc1 (centres undefined)", 1100),
]

A = Cc1ccccc1-c1noc(-c2cccn(CC(=O)N3CCCC3)c2=O)n1
B = CCOc1ccc(NS(=O)(=O)c2ccccc2-c2nc(-c3ccc(F)cc3)no2)cc1
Select the item with the higher value of RP-LC retention time from the options A and B listed. Use the label to indicate which entry you chose. B
(B: 1200 s, A: 750 s)

====

experiment.description: gradient 5% acetonitrile 3 min, to 50% in 2 min, to 85% in 15 min, held 3 min, 100 µL/min
settings: column: Zorbax Extend-C18 2.1 x 50 mm; eluents: water / acetonitrile, 0.1% formic acid
measured.attribute: RP-LC retention time (s)

Below, each entry is followed by its recorded RP-LC retention time result.
# compound, RP-LC retention time, s
measured = [
    ("CCS(=O)(=O)N1CCCc2cc(C(=O)Nc3ccc(Br)cc3)ccc21", 1030),
    ("CC(C(=O)Nc1cc(F)ccc1F)C1CCN(C(=O)Nc2ccccc2)CC1 (stereo not given)", 867),
    ("Cc1[nH]c(C(=O)N2CCCC(C(=O)NCc3ccc(OC(C)C)cc3)C2)c(C)c1C(=O)OC(C)C (stereo not given)", 929),
    ("O=S(=O)(c1ccccc1Cl)N1CCN(Cc2cccc(F)c2)C2(CCOCC2)C1", 846),
    ("CN(C)S(=O)(=O)c1ccc(C(=O)Oc2coc(CSc3nccn3C)cc2=O)cc1", 566),
    ("CCCn1cc(CCNS(=O)(=O)c2c(C)noc2C)c2cccnc21", 779),
]

a = COc1cccc(CNC(=O)Cn2c(N3CCCC3)nc(C)cc2=O)c1
b = O=S(=O)(c1ccc(Cl)s1)N1CCc2nc(-c3ccc(Cl)cc3)ncc2C1
// returns a or b , whichever has the lower RP-LC retention time Choose, then provide that item's label. a

I = CC(C)C(=O)Nc1nc(-c2cccc3ccccc23)cs1
II = c1nc2c(c(NCc3ccc4c(c3)OCO4)n1)CCC2
Out of I and II , name the one with the higher RP-LC retention time. # reply format: chosen label I

====

experiment.description: gradient 5% acetonitrile 3 min, to 50% in 2 min, to 85% in 15 min, held 3 min, 100 µL/min
settings: column: Zorbax Extend-C18 2.1 x 50 mm; eluents: water / acetonitrile, 0.1% formic acid
measured.attribute: RP-LC retention time (s)

# compound, display.unit, endpoint.value
rows = [
    ("COC(=O)c1cccc(NC(=O)NC(C(=O)N2CCc3ccccc32)c2ccccc2)c1 (centres undefined)", "s", 1030),
]

P = O=C(Nc1ccccc1)C1CCCN(S(=O)(=O)c2cc(-c3noc(C4CCCC4)n3)cs2)C1 (centres undefined)
Q = CC(C)CNC(=O)C1(CCO)CCN(c2ncccn2)C1 (centres undefined)
Hi team, can someone confirm which has the larger RP-LC retention time: P or Q ? Thanks. // return label of chosen record P
(P: 1220 s, Q: 584 s)

a = CN(C(=O)c1cc2c(=O)oc3ccccc3c2n1C)C1CCCCC1
b = COc1ccc(-c2noc(-c3cccnc3N3CCN(c4ccccc4F)CC3)n2)cc1
c = CN1C(=O)C(CC(=O)Nc2cccnc2)=C2CCCCC21 (centres undefined)
Rank the items in ascending order with respect to RP-LC retention time. In plain terms: list the labels in the order you were asked to. c, a, b
